Assay: total protein half-life in vivo (active degradation + dilution); higher = more stable protein
Details: E. coli NCM3722 delta-clpP delta-lon delta-hslV; growth: N-lim chemostat; doubling time 6 h
Decide using total protein half-life in vivo: a value greater than or equal to 5 h is fulfilled, a smaller one is not fulfilled.

Example entries begin here.
>>> category("MFKRRYVTLLPLFVLLAACSSKPKPTETDTTTGTPSGGFLLEPQHNVMQMGGDFANNPNAQQFIDKMVNKHGFDRQQLQEILSQAKRLDSVLRLMDNQAPTTSVKPPSGPNGAWLRYRKKFITPDNVQNGVVFWNQYEDALNRAWQVYGVPPEIIVGIIGVETRWGRVMGKTRILDALATLSFNYPRRAEYFSGELETFLLMARDEQDDPLNLKGSFAGAMGYGQFMPSSYKQYAVDFSGDGHINLWDPVDAIGSVANYFKAHGWVKGDQVAVMANGQAPGLPNGFKTKYSISQLAAAGLTPQQPLGNHQQASLLRLDVGTGYQYWYGLPNFYTITRYNHSTHYAMAVWQLGQAVALARVQ")
"fulfilled"
>>> category("MTDMNILDLFLKASLLVKLIMLILIGFSIASWAIIIQRTRILNAAAREAEAFEDKFWSGIELSRLYQESQGKRDNLTGSEQIFYSGFKEFVRLHRANSHAPEAVVEGASRAMRISMNRELENLETHIPFLGTVGSISPYIGLFGTVWGIMHAFIALGAVKQATLQMVAPGIAEALIATAIGLFAAIPAVMAYNRLNQRVNKLELNYDNFMEEFTAILHRQAFTVSESNKG [P0ABU9]")
"fulfilled"
>>> category("MIDDDGYRPNVGIVICNRQGQVMWARRFGQHSWQFPQGGINPGESAEQAMYRELFEEVGLSRKDVRILASTRNWLRYKLPKRLVRWDTKPVCIGQKQKWFLLQLVSGDAEINMQTSSTPEFDGWRWVSYWYPVRQVVSFKRDVYRRVMKEFASVVMSLQENTPKPQNASAYRRKRG [P0A776]")
"fulfilled"
>>> category("MSNPILSWRRVRALCVKETRQIVRDPSSWLIAVVIPLLLLFIFGYGINLDSSKLRVGILLEQRSEAALDFTHTMTGSPYIDATISDNRQELIAKMQAGKIRGLVVIPVDFAEQMERANATAPIQVITDGSEPNTANFVQGYVEGIWQIWQMQRAEDNGQTFEPLIDVQTRYWFNPAAISQHFIIPGAVTIIMTVIGAILTSLVVAREWERGTMEALLSTEITRTELLLCKLIPYYFLGMLAMLLCMLVSVFILGVPYRGSLLILFFISSLFLLSTLGMGLLISTITRNQFNAAQVALNAAFLPSIMLSGFIFQIDSMPAVIRAVTYIIPARYFVSTLQSLFLAGNIPVVLVVNVLFLIASAVMFIGLTWLKTKRRLD [P0AFQ2]")
"fulfilled"
>>> category("MTDKMQSLALAPVGNLDSYIRAANAWPMLSADEERALAEKLHYHGDLEAAKTLILSHLRFVVHIARNYAGYGLPQADLIQEGNIGLMKAVRRFNPEVGVRLVSFAVHWIKAEIHEYVLRNWRIVKVATTKAQRKLFFNLRKTKQRLGWFNQDEVEMVARELGVTSKDVREMESRMAAQDMTFDLSSDDDSDSQPMAPVLYLQDKSSNFADGIEDDNWEEQAANRLTDAMQGLDERSQDIIRARWLDEDNKSTLQELADRYGVSAERVRQLEKNAMKKLRAAIEA [P0AGB3]")
"not fulfilled"

Now look at this one.
Could you please find out whether MRWLPFIAIFLYVYIEISIFIQVAHVLGVLLTLVLVIFTSVIGMSLVRNQGFKNFVLMQQKMAAGENPAAEMIKSVSLIIAGLLLLLPGFFTDFLGLLLLLPPVQKHLTVKLMPHLRFSRMPGGGFSAGTGGGNTFDGEYQRKDDERDRLDHKDDRQD has total protein half-life in vivo that meets 5 h or exceeds it?
fulfilled
